Cited source for all entries: patent US20190084939A1

# TGT: Human FXR full length (Homo sapiens)
# Construct: Human FXR full length and RXR full length was obtained from Ronald Evans' laboratory; expressed in transfected cells; host or cells: CV-1 cells
# Sequence (Q96RI1 1-476 isoform Q96RI1-1): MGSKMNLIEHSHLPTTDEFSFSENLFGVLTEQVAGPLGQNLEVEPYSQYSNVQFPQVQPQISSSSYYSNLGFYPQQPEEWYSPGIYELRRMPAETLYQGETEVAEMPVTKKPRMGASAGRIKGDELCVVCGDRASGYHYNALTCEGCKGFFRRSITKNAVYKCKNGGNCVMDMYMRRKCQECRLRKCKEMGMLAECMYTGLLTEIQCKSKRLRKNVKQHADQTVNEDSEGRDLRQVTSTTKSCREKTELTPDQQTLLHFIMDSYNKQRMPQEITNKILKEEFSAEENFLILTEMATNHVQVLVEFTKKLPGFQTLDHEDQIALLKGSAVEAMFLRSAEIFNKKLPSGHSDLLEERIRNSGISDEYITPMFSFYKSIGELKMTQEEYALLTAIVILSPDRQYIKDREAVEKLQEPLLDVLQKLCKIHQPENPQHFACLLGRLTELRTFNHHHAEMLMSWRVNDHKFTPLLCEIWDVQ
# Sequence (P19793 whole entry partner): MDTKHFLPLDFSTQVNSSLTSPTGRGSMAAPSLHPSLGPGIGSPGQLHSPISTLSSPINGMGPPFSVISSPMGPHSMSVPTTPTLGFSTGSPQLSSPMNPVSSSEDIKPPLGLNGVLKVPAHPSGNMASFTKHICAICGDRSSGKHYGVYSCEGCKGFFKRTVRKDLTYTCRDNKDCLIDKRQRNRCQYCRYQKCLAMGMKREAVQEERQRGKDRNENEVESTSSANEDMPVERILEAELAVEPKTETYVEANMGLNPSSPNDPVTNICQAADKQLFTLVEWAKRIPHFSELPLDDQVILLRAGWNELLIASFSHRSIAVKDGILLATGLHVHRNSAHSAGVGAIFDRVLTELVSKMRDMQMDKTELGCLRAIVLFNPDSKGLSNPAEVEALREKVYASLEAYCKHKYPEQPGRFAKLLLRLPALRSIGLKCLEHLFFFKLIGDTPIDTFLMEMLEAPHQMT
# EXPERIMENT DESCRIPTION: FXR activity screen, luciferase reporter in transfected CV-1 cells
# Format: cell-based
# CONDITION PARAMETERS: first round; CV-1 cells, 24 hours; read-out: 1st RND EC50
Here the recorded pEC50 is given for each entry.
Hey, just a heads up that pEC50 is the negative log base 10 of the concentration in molar.

Here are 4 compounds together with their reported answers.
[2H]C(c1ccc(-c2ccc(N(C)C)cc2)cc1F)N(C(=O)c1ccccc1)c1cccc(/C=C/C(=O)OC)c1 (centres unmarked)    6.29
COC(=O)/C=C/c1cc(F)cc(N(Cc2ccc(-c3ccc(N(C)C)cc3)cc2)C(=O)c2ccccc2)c1    5.24
[2H]C(c1ccc(-c2ccc(N(C)C)cc2)cc1)N(C(=O)c1ccccc1)c1cc(F)cc(/C=C/C(=O)OC)c1 (centres unmarked)    6.58
[2H]C(c1ccc(-c2ccc(N(C)C)cc2)cc1F)N(C(=O)[C@@H]1C[C@@H]2CC[C@H]1C2)c1cc(F)cc(/C=C/C(=O)OC)c1 (some centres unmarked)    7.22

Next up:
What does the data say about its pEC50? Entry: [2H]C(c1ccc(-c2ccc3c(cnn3C)c2)cc1)N(C(=O)c1ccccc1)c1cccc(/C=C/C(=O)OC)c1 (centres unmarked) 5.55
